Numbers sourced from the supplement of paper PMC10567573.

This section presents variants with their documented protein stability index values.
B1: TOR1AIP2 (parent)
chain: YTSSQKVSPIQIDGAGRTWQDSDT

variants of: B1; assay: protein stability index of a GFP-peptide fusion (GPS, HEK-293T) (PSI 1-6); higher = more stable; conditions: c terminus: a fixed tail appended;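 further: lentivirally expressed fusions sorted by FACS into six bins by GFP to DsRed ratio, PSI derived from sequencing read proportions per bin multiplied by bin number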

Query string: Give recorded protein stability index. G16Q
Result string: 2.97

Query string: Note down protein stability index recorded for S22H
Result string: 3.06

Query string: Let me know recorded protein stability index for Q5A , thanks.
Result string: 3.08
